FYI, the data here is from ChEMBL document CHEMBL4270554.

# PROTOCOL_DESCRIPTION: Solubility of the compound in 10% DMSO/50% PEG400/40% water at pH 3.5 by HPLC analysis
# Type: physicochemical

SMILES_CODE: Cl.N#C/C(=C\c1cccc2cnccc12)c1c[nH]c2ccccc12
solubility, µg/mL: 966

###

# PROTOCOL_DESCRIPTION: Solubility of the compound in 10% EtOH/50% PEG400/40% water at pH 5 by HPLC analysis
# Assay type: physicochemical
PROPERTY_LABEL: solubility (µg/mL)

SMILES_CODE: Cl.N#C/C(=C\c1cccc2cnccc12)c1c[nH]c2ccccc12
PROPERTY_LABEL: solubility
READOUT_NUMBER: 741

###

# PROTOCOL_DESCRIPTION: Tmax in Wistar rat at 10 mg/kg, po by LC-MS/MS analysis
# Format: ADME, organism-based
# ASSAY_CONDITIONS: in vivo

SMILES_CODE: Cl.N#C/C(=C\c1cccc2cnccc12)c1c[nH]c2ccccc12
Tmax: 43.2 min

###

# PROTOCOL_DESCRIPTION: Antiproliferative activity against human IMR90 cells after 72 hrs by MTT assay
# Type: cell-based
# ASSAY_CONDITIONS: IMR-90 cells

SMILES_CODE: N#C/C(=C\c1cccc2cnccc12)c1c[nH]c2ccccc12
UNIT_INFO: µM
GI50 at 72 h: 5.8

###

# PROTOCOL_DESCRIPTION: AUC (0 to infinity) in Wistar rat at 2 mg/kg, iv by LC-MS/MS analysis
# Format: ADME, organism-based
# Parameters: dose 2 mg/kg, time infinity, route intravenous
# ASSAY_CONDITIONS: in vivo
PROPERTY_LABEL: AUC(0-inf) (ng·h/mL)

SMILES_CODE: Cl.N#C/C(=C\c1cccc2cnccc12)c1c[nH]c2ccccc12
READOUT_NUMBER: 822

###

# PROTOCOL_DESCRIPTION: Solubility of the compound in 10% EtOH/50% PEG400/40% water at pH 3.5 by HPLC analysis
# Assay type: physicochemical

SMILES_CODE: Cl.N#C/C(=C\c1cccc2cnccc12)c1c[nH]c2ccccc12
solubility / µg/mL: 1300

###

# PROTOCOL_DESCRIPTION: MRT in Wistar rat at 2 mg/kg, iv by LC-MS/MS analysis
# Assay type: ADME, organism-based
# ASSAY_CONDITIONS: in vivo

SMILES_CODE: Cl.N#C/C(=C\c1cccc2cnccc12)c1c[nH]c2ccccc12
MRT / min: 17.4

###

# System: hTERT-BJ
# PROTOCOL_DESCRIPTION: Induction of autophagy in human hTERT-BJ cells transformed with hTert, small t, shRNAs against p53 and pRb and H-RasV12-ER assessed as increase in LC3-2 to LC3-1 ratio at 5 uM after 24 hrs by immunoblot analysis relative to control
# Type: functional

COMPOUND: N#C/C(=C\c1cccc2cnccc12)c1c[nH]c2ccc(OCCCN3CCCC3)cc12
fold change (FC): 6
--
COMPOUND: N#CC(Cc1cccc2cnccc12)c1c[nH]c2ccccc12 (centres undefined)
fold change (FC): 0.3
--
COMPOUND: N#C/C(=C\c1cccc2ncccc12)c1c[nH]c2ccccc12
fold change (FC): 0.7
--
COMPOUND: N#C/C(=C\c1cccc2ccncc12)c1c[nH]c2ccccc12
fold change (FC): 0.7
--
COMPOUND: N#C/C(=C\c1cccc2cnccc12)c1c[nH]c2c(Br)cccc12
fold change (FC): 2.2
--
COMPOUND: N#C/C(=C\c1cccnc1)c1c[nH]c2ccccc12
fold change (FC): 1.1
--
COMPOUND: N#C/C(=C\c1cccc2cnccc12)c1c[nH]c2ncccc12
fold change (FC): 1.4
--
COMPOUND: COc1cccc2c(/C(C#N)=C/c3cccc4cnccc34)c[nH]c12
fold change (FC): 2.7
--
COMPOUND: N#C/C(=C\c1cccc2cnccc12)c1c[nH]c2ccc(Br)cc12
fold change (FC): 4
--
COMPOUND: O=C(Nc1cccc2cnccc12)c1c[nH]c2ccccc12
fold change (FC): 0.4
--
COMPOUND: C(=C\c1c[nH]c2ccccc12)/c1cccc2cnccc12
fold change (FC): 5.4
--
COMPOUND: N#C/C(=C\c1cccc2cnccc12)c1c[nH]c2c(CN3CCCC3)cccc12
fold change (FC): 3.7
--
COMPOUND: N#C/C(=C\c1cccc2cnccc12)c1c[nH]c2ccccc12
fold change (FC): 5
--
COMPOUND: COc1ccc2c(/C(C#N)=C/c3cccc4cnccc34)c[nH]c2c1
fold change (FC): 2.6
--
COMPOUND: N#C/C(=C\c1cccc2cnccc12)c1c[nH]c2cc(Br)ccc12
fold change (FC): 0.7
--
COMPOUND: N#C/C(=C\c1cccc2cnccc12)c1n[nH]c2ccccc12
fold change (FC): 2
--
COMPOUND: Cn1cc(/C(C#N)=C/c2cccc3cnccc23)c2ccccc21
fold change (FC): 1.6
--
COMPOUND: N#C/C(=C\c1cccc2cnccc12)c1c[nH]c2ccc(OCCC3OCCO3)cc12
fold change (FC): 0.7
--
COMPOUND: Cc1[nH]c2ccccc2c1/C(C#N)=C/c1cccc2cnccc12
fold change (FC): 0.7
--
COMPOUND: N#C/C(=C\c1cccc2cnccc12)c1c[nH]c2ccc(F)cc12
fold change (FC): 0.5
--
COMPOUND: CC(=O)Nc1ccc2[nH]cc(/C(C#N)=C/c3cccc4cnccc34)c2c1
fold change (FC): 0.5
--
COMPOUND: N#C/C(=C\c1cccc2cccnc12)c1c[nH]c2ccccc12
fold change (FC): 0.6
--
COMPOUND: N#C/C(=C\c1cncc2ccccc12)c1c[nH]c2ccccc12
fold change (FC): 0.7
--
COMPOUND: N#C/C(=C\c1cccc2cnccc12)c1c[nH]c2cccc(Br)c12
fold change (FC): 0.5
